Would you mind telling me the reported viability, T/C of each entry?
Test system: 922993-354-T-J3-PDC complex spheroids, viability, % test/control
assay: Anticancer human tumor 922993-354-T-J3-PDC patient-derived endometrial carcinoma cell line growth inhibition [CLK]
experimental parameters: second compound 0.1 µM; first compound 0.01 µM; stronger effect = lower value
Report the figure in % without appending any unit label.

Retrieve viability, T/C measured for COc1c(OCCCN2CCOCC2)ccc2c3n(c(=NC(=O)c4cnc(N)nc4)nc12)CCN3 + CNC(=O)c1ccc(Nc2nc(OC3CCCC3)c3c(-c4ccc5nc(C)oc5c4)c[nH]c3n2)c(OC)c1 and print it. 100

Write down viability, T/C measured for item COc1c(OCCCN2CCOCC2)ccc2c3n(c(=NC(=O)c4cnc(N)nc4)nc12)CCN3 + CN1CCN(c2cc(C(=O)Nc3cc4cc(-c5cnn(C)c5)ccc4cn3)ccn2)CC1 99.9

Return reported viability, T/C. Input compound: Cn1ncnc1[C@H]1c2n[nH]c(=O)c3cc(F)cc(c23)N[C@@H]1c1ccc(F)cc1 + CNC(=O)c1ccc(Nc2nc(OC3CCCC3)c3c(-c4ccc5nc(C)oc5c4)c[nH]c3n2)c(OC)c1 104

State its viability, T/C: Cn1ncnc1[C@H]1c2n[nH]c(=O)c3cc(F)cc(c23)N[C@@H]1c1ccc(F)cc1 + CN1CCN(c2cc(C(=O)Nc3cc4cc(-c5cnn(C)c5)ccc4cn3)ccn2)CC1 103

For the compound CCN1CCN(Cc2ccc(Nc3ncc(F)c(-c4cc(F)c5nc(C)n(C(C)C)c5c4)n3)nc2)CC1 + CNC(=O)c1ccc(Nc2nc(OC3CCCC3)c3c(-c4ccc5nc(C)oc5c4)c[nH]c3n2)c(OC)c1 , give its measured viability, T/C value. 93.4

---

System: 922993-354-T-J3-PDC complex spheroids, viability, % test/control
assay: Anticancer human tumor 922993-354-T-J3-PDC cell line growth inhibition [CLK];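 further: spheroids exposed to the agents for 7 days before readout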
experimental parameters: curve of first compound; second compound 3.16 µM
pIC50: −log10 of the molar value.
Task for the reader: assign each of the following compounds its reported pIC50.

Give the reported value of pIC50 for this record: CC(Nc1ccc2c(c1)OCCn1cc(N3C(=O)OCC3C(F)F)nc1-2)C(N)=O (stereo not drawn) + CNC(=O)c1ccc(Nc2nc(OC3CCCC3)c3c(-c4ccc5nc(C)oc5c4)c[nH]c3n2)c(OC)c1 > 7.50

Consider the compound COc1cccc2c1C(=O)c1c(O)c3c(c(O)c1C2=O)CC(O)(C(=O)CO)CC3OC1CC(N)C(O)C(C)O1 (stereo not drawn) + CNC(=O)c1ccc(Nc2nc(OC3CCCC3)c3c(-c4ccc5nc(C)oc5c4)c[nH]c3n2)c(OC)c1 . State its measured pIC50. > 7.50

Please indicate pIC50 recorded for Nc1ccccc1NC(=O)c1ccc(CNC(=O)OCc2cccnc2)cc1 + CN1CCN(c2cc(C(=O)Nc3cc4cc(-c5cnn(C)c5)ccc4cn3)ccn2)CC1 > 7.50

---

Tested on: 922993-354-T-J3-PDC complex spheroids, viability, % test/control
assay: Anticancer human tumor 922993-354-T-J3-PDC cell line growth inhibition [CLK];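 further: spheroids exposed to the agents for 7 days before readout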
experimental parameters: second compound 1 µM; first compound 0.00949 µM; stronger effect = lower value
readout name: viability, T/C (%)
Report as a plain number; the unit % is understood.

Input CC(C)CC(NC(=O)C(Cc1ccccc1)NC(=O)c1cnccn1)B(O)O (stereo unspecified) + CNC(=O)c1ccc(Nc2nc(OC3CCCC3)c3c(-c4ccc5nc(C)oc5c4)c[nH]c3n2)c(OC)c1 , output reported viability, T/C. 14

Specify measured viability, T/C for C=CC(=O)Nc1cc(Nc2nccc(-c3cn(C)c4ccccc34)n2)c(OC)cc1N(C)CCN(C)C + CNC(=O)c1ccc(Nc2nc(OC3CCCC3)c3c(-c4ccc5nc(C)oc5c4)c[nH]c3n2)c(OC)c1 . 41.9

Return the recorded viability, T/C value; entry: NC(=O)C(=Cn1cnc(-c2cc(C(F)(F)F)cc(C(F)(F)F)c2)n1)c1cncnc1 + CNC(=O)c1ccc(Nc2nc(OC3CCCC3)c3c(-c4ccc5nc(C)oc5c4)c[nH]c3n2)c(OC)c1 56.8

Annotate the molecule CC(C)CC(NC(=O)C(Cc1ccccc1)NC(=O)c1cnccn1)B(O)O (stereo unspecified) + CN1CCN(c2cc(C(=O)Nc3cc4cc(-c5cnn(C)c5)ccc4cn3)ccn2)CC1 with its measured viability, T/C. 0.98

Check the records and state viability, T/C for NC(=O)C(=Cn1cnc(-c2cc(C(F)(F)F)cc(C(F)(F)F)c2)n1)c1cncnc1 + CN1CCN(c2cc(C(=O)Nc3cc4cc(-c5cnn(C)c5)ccc4cn3)ccn2)CC1 0.11

Fill in viability, T/C for record C=CC(=O)Nc1cc(Nc2nccc(-c3cn(C)c4ccccc34)n2)c(OC)cc1N(C)CCN(C)C + CN1CCN(c2cc(C(=O)Nc3cc4cc(-c5cnn(C)c5)ccc4cn3)ccn2)CC1 1.12
